# maps each entry to its % Hemolysis 100 μg/ml
System: human red blood cells
ASSAY_NOTES: Hemolytic assay
Type: cell-based
TEST_SETTINGS: red cells of human, 100
Peptide text beside a SMILES is read from it. * marks the point of attachment. Acm = CC(=O)NC*
Value expressed in %; do not type the unit.

# COMPOUND, SYSTEM, TEST_READOUT, UNIT_ANNOTATION, READOUT_NUMBER
records = [
    ("CSCC[C@H](NC(=O)[C@H](CCCNC(=N)N)NC(=O)[C@H](Cc1c[nH]c2ccccc12)NC(=O)[C@H](CCC(N)=O)NC(=O)[C@H](Cc1c[nH]c2ccccc12)NC(=O)[C@H](CCCNC(=N)N)NC(=O)[C@H](Cc1ccccc1)NC(=O)[C@H](CSCNC(C)=O)NC(=O)[C@H](CCCCN)NC(=O)[C@@H](N)Cc1ccccc1)C(=O)N[C@@H](CCCCN)C(=O)N[C@@H](CCCCN)C(=O)N[C@@H](CC(C)C)C(=O)NCC(=O)N[C@@H](C)C(=O)O [LFB F4] (H-FKC(Acm)FRWQWRMKKLGA-OH; N-terminus and C-terminus assumed)", "human red blood cells", "% Hemolysis 100 μg/ml", "%", 3.2),
]

Now, please, on to the next compound.
Request the reported % Hemolysis 100 μg/ml associated with CSCC[C@H](NC(=O)[C@H](CCCNC(=N)N)NC(=O)[C@H](Cc1c[nH]c2ccccc12)NC(=O)[C@H](CCC(N)=O)NC(=O)[C@H](Cc1ccc2ccccc2c1)NC(=O)[C@H](CCCNC(=N)N)NC(=O)[C@H](CCCNC(=N)N)NC(=O)[C@H](CSCNC(C)=O)NC(=O)[C@H](CCCCN)NC(=O)[C@@H](N)Cc1ccccc1)C(=O)N[C@@H](CCCCN)C(=O)N[C@@H](CCCCN)C(=O)N[C@@H](CC(C)C)C(=O)NCC(=O)N[C@@H](C)C(=O)O
4.4

====

# maps each entry to its MIC S. aureus
Tested on: Staphylococcus aureus ATCC 25923
Format: cell-based
TEST_SETTINGS: ATCC 25923
Peptide text beside a SMILES is read from it. * marks the point of attachment. Acm = CC(=O)NC*

Look over these answered cases.
# COMPOUND, SYSTEM, RESULT
records = [
    ("CSCC[C@H](NC(=O)[C@H](CCCNC(=N)N)NC(=O)[C@H](Cc1ccc2ccccc2c1)NC(=O)[C@H](CCC(N)=O)NC(=O)[C@H](Cc1ccc2ccccc2c1)NC(=O)[C@H](CCCNC(=N)N)NC(=O)[C@H](CCCNC(=N)N)NC(=O)[C@H](CSCNC(C)=O)NC(=O)[C@H](CCCCN)NC(=O)[C@@H](N)Cc1ccccc1)C(=O)N[C@@H](CCCCN)C(=O)N[C@@H](CCCCN)C(=O)N[C@@H](CC(C)C)C(=O)NCC(=O)N[C@@H](C)C(=O)O [LFB Nal6, 8]", "Staphylococcus aureus ATCC 25923", "9.6 µM"),
    ("CSCC[C@H](NC(=O)[C@H](CCCNC(=N)N)NC(=O)[C@H](Cc1c[nH]c2ccccc12)NC(=O)[C@H](CCC(N)=O)NC(=O)[C@H](Cc1c[nH]c2ccccc12)NC(=O)[C@H](CCCNC(=N)N)NC(=O)[C@H](CCCNC(=N)N)NC(=O)[C@H](CSCNC(C)=O)NC(=O)[C@H](CCCCN)NC(=O)[C@@H](N)Cc1ccccc1)C(=O)N[C@@H](C)C(=O)N[C@@H](CCCCN)C(=O)N[C@@H](CC(C)C)C(=O)NCC(=O)N[C@@H](C)C(=O)O [LFB A11] (H-FKC(Acm)RRWQWRMAKLGA-OH)", "Staphylococcus aureus ATCC 25923", ">200 µg/mL"),
]

Request the reported MIC S. aureus associated with CSCC[C@H](NC(=O)[C@H](CCCNC(=N)N)NC(=O)[C@H](Cc1c[nH]c2ccccc12)NC(=O)[C@H](CCC(N)=O)NC(=O)[C@H](Cc1ccc(-c2ccccc2)cc1)NC(=O)[C@H](CCCNC(=N)N)NC(=O)[C@H](CCCNC(=N)N)NC(=O)[C@H](CSCNC(C)=O)NC(=O)[C@H](CCCCN)NC(=O)[C@@H](N)Cc1ccccc1)C(=O)N[C@@H](CCCCN)C(=O)N[C@@H](CCCCN)C(=O)N[C@@H](CC(C)C)C(=O)NCC(=O)N[C@@H](C)C(=O)O [LFB Bip6]
25 µg/mL

====

# maps each entry to its % Hemolysis 10 μg/ml
Test system: human red blood cells
ASSAY_NOTES: Hemolytic assay
Format: cell-based
TEST_SETTINGS: red cells of human, 10
Ends that are not written are not given here.
Value expressed in %; do not type the unit.

# SUBSTANCE, % Hemolysis 10 μg/ml / %
rows = [
    ("RRWQWRMKKLG-OH [LFB 20-30]", 2.16),
    ("H-FKWRRWQWRMKKLWA-OH [LFB W3, 14]", 3.1),
    ("RRWAWRMKK-OH [LFB 20-28 A4]", 0),
]

Request the reported % Hemolysis 10 μg/ml associated with H-FKWRRWWWRMKKLWA-OH [LFB W3, 7, 14]
4.02

Request the reported % Hemolysis 10 μg/ml associated with RRWQWRMKKL-OH [LFB 20-29]
1.75

====

Tested on: Escherichia coli ATCC 25922
Type: cell-based
TEST_SETTINGS: ATCC 25922
Peptide text beside a SMILES is read from it. * marks the point of attachment. Acm = CC(=O)NC*
TEST_READOUT: MIC E. coli

What reported MIC E. coli corresponds to CSCC[C@H](NC(=O)[C@H](C)NC(=O)[C@H](Cc1c[nH]c2ccccc12)NC(=O)[C@H](CCC(N)=O)NC(=O)[C@H](Cc1c[nH]c2ccccc12)NC(=O)[C@H](CCCNC(=N)N)NC(=O)[C@H](CC(C)C)NC(=O)[C@H](CSCNC(C)=O)NC(=O)[C@H](CCCCN)NC(=O)[C@@H](N)CCC(=O)O)C(=O)N[C@@H](CCCNC(=N)N)C(=O)N[C@@H](CCCCN)C(=O)N[C@@H](Cc1ccc(O)cc1)C(=O)NCC(=O)NCC(=O)O [LFM A9 W8 Y13] (H-EKC(Acm)LRWQWAMRKYGG-OH; N-terminus and C-terminus assumed) on Escherichia coli ATCC 25922?
>1000 µg/mL

====

# maps each entry to its MIC E. coli
System: Escherichia coli ATCC 25922
Assay type: cell-based
TEST_SETTINGS: ATCC 25922
Square brackets hold non-standard residues; d marks the D form. Peptide text beside a SMILES is read from it. * marks the point of attachment. Acm = CC(=O)NC*
Value expressed in µg/mL; do not type the unit.

Look over these answered cases.
# MOLECULE, TEST_READOUT, READOUT_NUMBER
rows = [
    ("CSCC[C@H](NC(=O)[C@H](CCCNC(=N)N)NC(=O)[C@H](Cc1c[nH]c2ccccc12)NC(=O)[C@H](CCC(N)=O)NC(=O)[C@H](Cc1c[nH]c2ccccc12)NC(=O)[C@H](CCCNC(=N)N)NC(=O)[C@H](CC(C)C)NC(=O)[C@H](CSCNC(C)=O)NC(=O)[C@H](CCCCN)NC(=O)[C@@H](N)CCC(=O)O)C(=O)N[C@@H](CCCNC(=N)N)C(=O)N[C@@H](CCCCN)C(=O)N[C@H](C(=O)NCC(=O)NCC(=O)O)C(C)C [LFM R9 W8] (H-EKC(Acm)LRWQWRMRKVGG-OH; N-terminus assumed)", "MIC E. coli", 500),
    ("CSCC[C@H](NC(=O)[C@H](CCC(=O)O)NC(=O)[C@H](Cc1c[nH]c2ccccc12)NC(=O)[C@H](CCC(N)=O)NC(=O)[C@H](Cc1c[nH]c2ccccc12)NC(=O)[C@H](CCCNC(=N)N)NC(=O)[C@H](CC(C)C)NC(=O)[C@H](CSCNC(C)=O)NC(=O)[C@H](CCCCN)NC(=O)[C@H](C)N)C(=O)N[C@@H](CCCNC(=N)N)C(=O)N[C@@H](CCCCN)C(=O)N[C@H](C(=O)NCC(=O)NCC(=O)O)C(C)C [LFM A1 W8] (H-AKC(Acm)LRWQWEMRKVGG-OH; N-terminus assumed)", "MIC E. coli", 750),
    ("N=C(N)NCCC[C@@H](N)C(=O)N[C@@H](Cc1c[nH]c2ccccc12)C(=O)N[C@H](Cc1c[nH]c2ccccc12)C(=O)N[C@@H](CCCNC(=N)N)C(=O)N[C@H](Cc1ccc(O)cc1)C(=O)N[C@@H](Cc1c[nH]c2ccccc12)C(=O)N[C@H](CCCNC(=N)N)C(N)=O [arg-TRP-trp-ARG-tyr-TRP-arg-CONH2] (H-[dR]W[dW]R[dY]W[dR]-NH2; N-terminus assumed)", "MIC E. coli", 7.5),
]

Now, please, on to the next molecule.
Request the reported MIC E. coli associated with CSCC[C@H](NC(=O)[C@H](CCCNC(=N)N)NC(=O)[C@H](Cc1c[nH]c2ccccc12)NC(=O)[C@H](CCC(N)=O)NC(=O)[C@H](Cc1ccc(-c2ccccc2)cc1)NC(=O)[C@H](CCCNC(=N)N)NC(=O)[C@H](CCCNC(=N)N)NC(=O)[C@H](CSCNC(C)=O)NC(=O)[C@H](CCCCN)NC(=O)[C@@H](N)Cc1ccccc1)C(=O)N[C@@H](CCCCN)C(=O)N[C@@H](CCCCN)C(=O)N[C@@H](CC(C)C)C(=O)NCC(=O)N[C@@H](C)C(=O)O
25
